- assayed-target: NsdUTPase WT (Nocardia seriolae, UniProt A0ABF7PKI9)
- Sequence (A0ABF7PKI9 1-166): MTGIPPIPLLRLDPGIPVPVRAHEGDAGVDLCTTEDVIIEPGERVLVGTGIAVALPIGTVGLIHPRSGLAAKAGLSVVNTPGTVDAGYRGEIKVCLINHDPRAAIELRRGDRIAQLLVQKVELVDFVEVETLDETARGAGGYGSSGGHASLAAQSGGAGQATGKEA
- protocol-text: Kd to WT NsdUTPase
- Assay type: binding, N. seriolae
Would you mind telling me the reported Kd of each entry?

[ask] Requested field: Kd. Item: C=CCn1c(-c2ccc(Oc3ccccc3)cc2)nc2cc(C)ccc21 [12b]
[reply] 7.49 µM

[ask] Query (compound): C=CCn1c(/C=C/c2ccccc2)nc2cc(C(F)(F)F)ccc21 [4b] ; field requested: Kd
[reply] 10.3 µM

---

- assayed-target: UniProtKB A0ABF7PKI9
- protocol-text: NsdUTPase activity assay (PPi Light inorganic pyrophosphate assay kit)
- Type: biochemical
- particulars: in vitro enzyme inhibitory activity; read-out: IC50 against NsdUTPase
Provide the recorded pIC50 for the entries that follow.
Convention used: pIC50 is expressed as -log10 of the molar concentration.

[ask] # lookup: pIC50 of C=CCn1c(-c2ccc(Oc3ccccc3)cc2)nc2cc(C)c(C)cc21 [12d]
[reply] 5.43

[ask] Give its pIC50 value. Item: `C=CCn1c(/C=C/c2ccccc2OC)nc2cc(C(=O)c3ccccc3)ccc21`
[reply] 5.12

[ask] Could you share which pIC50 value was measured for `C=CCn1c(/C=C/c2ccccc2)nc2cc(C(=O)c3ccccc3)ccc21` ?
[reply] 5.02

[ask] Field request: pIC50 | item: C#CCn1c(-c2ccc(Oc3ccccc3)cc2)nc2cc(C(F)(F)F)ccc21 [12e]
[reply] 4.83
